- TEST_METHOD_NOTES: qHTS Assay for Lipid Storage Modulators (AID 1519)
- SETTINGS: Drosophila S3 cells, BODIPY lipid droplet/cell ratio, laser cytometry; measured here: cell count channel max response; cells loaded with oleic acid
Records with an inconclusive call do not appear.
VALUE_TYPE: max response (%)
Respond numerically; units are % and should not be typed.

MOLECULE: C/C=C1/CN2CC[C@]34C(=C(C=O)[C@H]1C[C@@H]23)Nc1ccccc14
REPORTED: 7.61
//
MOLECULE: CN1C(=O)COc2c(C(=O)N[C@@H]3CN4CCC3CC4)cc(Cl)cc21
REPORTED: 5.55
//
MOLECULE: N[C@H](CCP(=O)(O)O)C(=O)O
REPORTED: 21.6
//
MOLECULE: O=C(O)CF
REPORTED: 8.93

Lookup: // returns reported max response for input O[C@@H]1[C@H](O)[C@H]2[C@@H](O)CCN2C[C@@H]1O
Found: 7.43

Lookup: Please give the result for NC(N)=NCCCCCCCCCCN=C(N)N too.
Found: 7.9

Lookup: Would you kindly repeat that for N[C@H](CCCCCP(=O)(O)O)C(=O)O ?
Found: -11.8

Lookup: And the next one, COC(=O)/C=C\C(=O)N[C@@H]1CC[C@@]2(O)[C@H]3Cc4ccc(O)c5c4[C@@]2(CCN3CC2CC2)[C@@H]1O5 ?
Found: -6.87

Lookup: Now the same for N[C@@H](CCP(=O)(O)O)C(=O)O
Found: -5.2

Lookup: Same read-out for CC1O[C@@H](O[C@@H]2C(O)C[C@H](O[C@@H]3C(O)C[C@@H](OC4CC[C@@]5(C)C6CC[C@]7(C)C(C8=CC(=O)OC8)CC[C@@]7(O)C6CC[C@@H]5C4)OC3C)OC2C)CC(O)[C@H]1O (stereo not given in full) ?
Found: 20.2

====

- Test system: CP250
- TEST_METHOD_NOTES: qHTS profiling for inhibitors of Plasmodium falciparum proliferation (AID 504749); further: nearly all actives have a fitted effect of over 60% in size
- SETTINGS: P. falciparum in erythrocytes, SYBR Green DNA, 72 h; series mostly up to 28.7 µM
Results filed as inconclusive are left out. Calls of active or inactive are those of the source. Calls follow the shape of the dose curve; as a rule, active = well fitted inhibition curve with a large enough effect; inconclusive = small, poorly fitted or top-dose-only effect; inactive = flat fitted curve, though single readings scatter.
Respond using exactly one of the listed classes: t = active, f = inactive

Example cases with answers are listed next.
COMPOUND: C[N+](C)(C)CC(=O)[O-]
EXPERIMENTAL_SYSTEM: CP250
CAT: f
//
COMPOUND: CC(C)[C@@]1(NC(=O)[C@H]2CC3c4cccc5[nH]cc(c45)C[C@H]3N(C)C2)O[C@@]2(O)C3CCCN3C(=O)[C@@H](Cc3ccccc3)N2C1=O (some centres undefined)
EXPERIMENTAL_SYSTEM: CP250
CAT: t
//
COMPOUND: CCCCCCCCCC[N+](C)(C)CCCCCCCCCC
EXPERIMENTAL_SYSTEM: CP250
CAT: t

Lookup: Would you mind telling me which call this test gave CCN1C[C@]2(COC)[C@H](O)C[C@H](OC)[C@]34C1C([C@H](OC)[C@H]23)[C@]1(OC(C)=O)C2[C@@H](OC(=O)c3ccccc3)C(O)(C[C@H]24)[C@@H](OC)[C@@H]1O ?
Found: f

====

- EXPERIMENTAL_SYSTEM: Estrogen receptor (Homo sapiens) (UniProt P03372)
- Sequence (P03372 whole entry, looked up): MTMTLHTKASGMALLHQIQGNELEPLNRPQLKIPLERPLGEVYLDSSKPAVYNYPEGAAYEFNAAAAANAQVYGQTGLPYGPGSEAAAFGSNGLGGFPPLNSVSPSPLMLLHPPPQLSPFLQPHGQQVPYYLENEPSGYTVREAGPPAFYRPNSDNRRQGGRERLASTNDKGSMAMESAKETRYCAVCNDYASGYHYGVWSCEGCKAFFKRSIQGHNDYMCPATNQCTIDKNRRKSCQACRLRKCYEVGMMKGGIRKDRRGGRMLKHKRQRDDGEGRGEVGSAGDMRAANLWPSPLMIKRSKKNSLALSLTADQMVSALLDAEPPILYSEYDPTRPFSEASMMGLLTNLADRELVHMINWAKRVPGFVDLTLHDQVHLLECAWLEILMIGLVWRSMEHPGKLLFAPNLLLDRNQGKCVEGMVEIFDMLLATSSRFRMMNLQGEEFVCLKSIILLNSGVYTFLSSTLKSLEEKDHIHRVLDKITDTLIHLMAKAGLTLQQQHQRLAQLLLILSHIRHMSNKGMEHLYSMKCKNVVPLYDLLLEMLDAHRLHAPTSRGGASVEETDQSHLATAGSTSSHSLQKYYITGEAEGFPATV
- TEST_METHOD_NOTES: qHTS assay for small molecule agonists of estrogen receptor alpha signaling (AID 588514); further: nearly all actives have a fitted effect of over 70% in size; further: potency means the concentration at half of the fitted maximal effect
- SETTINGS: ER-alpha-UAS-bla HEK293, beta-lactamase ratio, 18 h; series mostly up to 76.8 µM
Results filed as inconclusive are left out. Active and inactive are the calls of the source. Calls come from the whole dose curve.
VALUE_TYPE: Potency

Examples from the recorded data:
MOLECULE: C[C@@H]1Cc2c(Cl)cc(C(=O)N[C@@H](Cc3ccccc3)C(=O)O)c(O)c2C(=O)O1
EXPERIMENTAL_SYSTEM: Estrogen receptor (Homo sapiens) (UniProt P03372)
REPORTED: 44.7 µM (active)
//
MOLECULE: CC(C)(c1ccc(OCC2CO2)cc1)c1ccc(OCC2CO2)cc1 (stereo not drawn)
EXPERIMENTAL_SYSTEM: Estrogen receptor (Homo sapiens) (UniProt P03372)
REPORTED: inactive
//
MOLECULE: CC(C)OC(=O)Nc1ccccc1
EXPERIMENTAL_SYSTEM: Estrogen receptor (Homo sapiens) (UniProt P03372)
REPORTED: inactive
//
MOLECULE: O=C1c2cccc(O)c2C(=O)c2c(O)cc(CO)cc21
EXPERIMENTAL_SYSTEM: Estrogen receptor (Homo sapiens) (UniProt P03372)
REPORTED: 20 µM (active)
//
MOLECULE: C[C@H]1O[C@H](OC2[C@@H](O)[C@@H](O)C(O)[C@H](O)[C@H]2O)[C@@H](N)C[C@@H]1N=C(N)C(=O)O (stereo partly drawn)
EXPERIMENTAL_SYSTEM: Estrogen receptor (Homo sapiens) (UniProt P03372)
REPORTED: inactive
//
MOLECULE: CC(C)COC(=O)c1ccccc1C(=O)OCC(C)C
EXPERIMENTAL_SYSTEM: Estrogen receptor (Homo sapiens) (UniProt P03372)
REPORTED: inactive
//
MOLECULE: Cc1ccccc1O
EXPERIMENTAL_SYSTEM: Estrogen receptor (Homo sapiens) (UniProt P03372)
REPORTED: inactive

Query molecule follows.
Lookup: Param readout = Potency; param system = Estrogen receptor (Homo sapiens) (UniProt P03372); param query = CCOC(=O)c1ccccc1N ; response: value
Found: inactive

====

- Test system: HEK293
- TEST_METHOD_NOTES: Cytotoxic Profiling of Annotated Libraries Using Quantitative High-Throughput Screening (AID 1296008); further: on the % scale 0 is the no-effect control and ±100 the full control effect; nearly all actives have a fitted effect of over 60% in size
- SETTINGS: Five cell lines viability, CellTiter-Glo ATP luminescence, 48-72 h; stronger effect = lower value
Records with an inconclusive call do not appear. Activity calls are given as the source filed them. Calls follow the shape of the dose curve; as a rule, active = well fitted inhibition curve with a large enough effect; inconclusive = small, poorly fitted or top-dose-only effect; inactive = flat fitted curve, though single readings scatter.
# max response per record follows

Consider the following illustrative entries.
SMILES_STR: CC[C@H]1/C=C\C=C/C[C@@H](C)[C@H](O)[C@@](C)(O)C(=O)[C@@H](C)[C@H](O)[C@@H](C)C(=O)[C@@H](C)[C@H](O)[C@@H](C)/C=C\C(=O)O[C@@H]2[C@H](C)[C@H](CC1)O[C@]1(CC[C@H](C)[C@H](C[C@@H](C)O)O1)[C@H]2C
max response: -112% (inactive)
//
SMILES_STR: CC[C@H]1C2CC3[C@@H]4N(C)c5ccccc5[C@]45C[C@@H]([C@H]2[C@H]5O)N3[C@H]1O
max response: 3.06% (inactive)
//
SMILES_STR: NC(=O)c1ncn2c1CN=C(c1ccccc1Br)c1cc(F)ccc1-2
max response: 0.36% (inactive)

Proceeding to the next compound to report its max response.
Lookup: Please state recorded max response (tested on HEK293) of Cc1c(N2C(=O)[C@@H]3[C@H](O)CCN3C2=O)ccc(C#N)c1Cl
Found: -6.16% (inactive)

====

- System: NIH3T3
- TEST_METHOD_NOTES: Cytotoxic Profiling of Annotated Libraries Using Quantitative High-Throughput Screening (AID 1296008); further: on the % scale 0 is the no-effect control and ±100 the full control effect; nearly all actives have a fitted effect of over 60% in size
- SETTINGS: Five cell lines viability, CellTiter-Glo ATP luminescence, 48-72 h; stronger effect = lower value
Inconclusive results are not listed. *1 amine or outer side, *2 acyl side, *3 side chain or, on linkers, in order; H or OH if unused. Where a SMILES comes first, the peptide text is derived from it. [ ]: non-standard residue; d: D form. X5 = CC(CC(O[*:1])C(=O)[*:2])C(=O)O; NMeV = CN[CH](C(=O)O)C(C)C; NMeA = CN[CH](C)C(=O)O; βAla = NCCC(=O)O
VALUE_TYPE: max response (%)
Give the value, in units of %, as a plain number.

MOLECULE: CCC(C)C1NC(=O)C2CCCN2C(=O)C(CC(C)C(=O)O)OC(=O)CCNC(=O)C(C)N(C)C(=O)C(C(C)C)N(C)C1=O (stereo not given) (cyclo([X5]PI[NMeV][NMeA][βAla]); configuration not given here)
max response / %: 3.88
--
MOLECULE: COc1ccc(C(C)(C)C)cc1CN[C@H]1C2CCN(CC2)[C@H]1C(c1ccccc1)c1ccccc1
max response / %: -16.4

Lookup: What measured max response goes with COCC(C(=O)OC1CC2CCC(C1)N2C)c1ccccc1 (stereo not given) ?
Found: 3.79

Lookup: Also CN1C2CCC1CC(OC(=O)N1Cc3ccccc3NC1=O)C2 (stereo not given) , if possible.
Found: -1.26

Lookup: Same question for CN=C(NS(=O)(=O)c1ccc(Cl)cc1)N1C[C@H](c2ccccc2)C(c2ccc(Cl)cc2)=N1 please.
Found: 4.13

Lookup: Request: CC(=O)O[C@H]1C(=O)[C@]2(C)C(O)C[C@H]3OC[C@@]3(OC(C)=O)[C@H]2[C@H](OC(=O)c2ccccc2)[C@]2(O)C[C@H](O)C(C)=C1C2(C)C (stereo not given in full)
Found: -3.65

Lookup: # iterate: COC1CC(O[C@H]2CC[C@]3(C=O)C4CC[C@]5(C)[C@@H](C6=CC(=O)OC6)CC[C@]5(O)[C@@H]4CC[C@@H]3C2)OC(C)C1O[C@@H]1O[C@H](CO)[C@@H](O[C@@H]2O[C@H](CO)[C@@H](O)[C@H](O)[C@H]2O)[C@H](O)[C@H]1O (stereo not given in full)
Found: 3.23
